Target: BaF3-FLT3-ITD-D835V (Homo sapiens, UniProt P36888, INS600HVDFREYEYD/D835V, cells depend on it)
Sequence (P36888 with tags, fused parts or gaps INS600HVDFREYEYD/D835V): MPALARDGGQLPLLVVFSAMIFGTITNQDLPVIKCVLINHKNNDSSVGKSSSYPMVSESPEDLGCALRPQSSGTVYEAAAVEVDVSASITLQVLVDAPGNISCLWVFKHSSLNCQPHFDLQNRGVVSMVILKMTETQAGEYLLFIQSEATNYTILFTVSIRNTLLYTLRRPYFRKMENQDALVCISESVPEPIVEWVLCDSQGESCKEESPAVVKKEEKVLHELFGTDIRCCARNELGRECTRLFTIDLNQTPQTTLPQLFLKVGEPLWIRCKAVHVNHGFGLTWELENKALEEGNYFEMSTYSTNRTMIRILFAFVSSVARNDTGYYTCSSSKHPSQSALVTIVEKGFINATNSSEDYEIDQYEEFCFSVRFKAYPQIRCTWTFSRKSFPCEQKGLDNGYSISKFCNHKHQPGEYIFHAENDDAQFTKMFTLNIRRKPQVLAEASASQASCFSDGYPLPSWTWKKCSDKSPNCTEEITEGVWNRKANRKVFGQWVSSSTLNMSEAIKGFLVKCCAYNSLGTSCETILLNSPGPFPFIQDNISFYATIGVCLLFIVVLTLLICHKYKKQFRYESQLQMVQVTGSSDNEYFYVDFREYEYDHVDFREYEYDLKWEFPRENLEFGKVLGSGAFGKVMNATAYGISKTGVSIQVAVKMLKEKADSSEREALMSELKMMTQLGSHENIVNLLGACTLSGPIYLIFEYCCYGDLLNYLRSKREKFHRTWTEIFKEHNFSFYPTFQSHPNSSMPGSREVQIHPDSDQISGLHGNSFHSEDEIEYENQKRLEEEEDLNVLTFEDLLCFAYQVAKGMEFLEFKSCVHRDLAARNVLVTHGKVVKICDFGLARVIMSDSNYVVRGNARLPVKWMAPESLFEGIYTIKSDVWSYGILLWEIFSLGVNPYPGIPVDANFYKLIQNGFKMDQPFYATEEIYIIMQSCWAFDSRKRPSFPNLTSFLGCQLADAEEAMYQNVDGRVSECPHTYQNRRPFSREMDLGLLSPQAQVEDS
Test: CTB viability assay CS0048, BaF3-FLT3-ITD-D835V
Format: cell-based, murine
Details: BaF3-FLT3-ITD-D835V cells, CellTiter Blue viability, 72 hours; read-out: Cell Assay: CS0048: BaF3-FLT3-ITD-D835V CTB:IC50
reportedEndpoint: GI50

Recorded results for 3 molecules are shown here.
INSERT INTO measurements (molecule, reportedvalue) VALUES
  ('CCc1nn(C2CCS(=O)(=O)C2)cc1Nc1ncc(-c2ccc(CC(=O)Nc3cc(C4(C(F)(F)F)CC4)on3)c(F)c2)cn1 (stereo not shown)', '10 to 50 nM'),
  ('O=C(Cc1ccc(-c2cnc(Nc3cnccn3)nc2)cc1F)Nc1cc(C2(C(F)(F)F)CC2)on1', '10 to 50 nM'),
  ('O=C(O)Cn1cc(Nc2ncc(-c3ccc(CC(=O)Nc4cc(C5(C(F)(F)F)CC5)on4)c(F)c3)cn2)cn1', '50 to 100 nM');

Attention now shifts to the item below.
Ask | What does the record list as GI50 for CCn1nccc1Nc1ncc(-c2ccc(CC(=O)Nc3cc(C4(C(F)(F)F)CC4)on3)c(F)c2)cn1 ?
Reply | 10 to 50 nM
